- System: rice
- Assay procedure: Treatment of soil under submerged condition, post-emergence (Test 5), injury
- Format: in vivo
- Experimental setup: 30 g ai/a granule, 30 days later
Parameter Injury Rice: see the listing below.

# count of solved cases: 5
input_smiles=COc1cc(OC)nc(Oc2ccccc2C=NOCC=Cc2ccccc2Br)n1 observed_measurement="1 (71-90 (Slight damages))"
input_smiles=COc1cc(OC)nc(Oc2ccccc2C=NOCc2ccc(C)cc2)n1 observed_measurement="0 (91-100 (No damages))"
input_smiles=COc1cc(OC)nc(Oc2ccccc2C=NOCC=CCl)n1 observed_measurement="0 (91-100 (No damages))"
input_smiles=COc1cc(OC)nc(Oc2ccccc2C=NOCC=C(C)Cl)n1 observed_measurement="0 (91-100 (No damages))"
input_smiles=C=C(Cl)CON=Cc1ccccc1Oc1nc(OC)cc(OC)n1 observed_measurement="1 (71-90 (Slight damages))"

Lab note: measured Injury Rice of `CCc1ccc(C=CCON=Cc2ccccc2Oc2nc(OC)cc(OC)n2)cc1` was 1 (71-90 (Slight damages))

Memo: `C=CCON=Cc1ccccc1Oc1nc(OC)cc(OC)n1` , reported Injury Rice: 0 (91-100 (No damages))

// Injury Rice value for `COc1cc(OC)nc(Oc2ccccc2C=NOCc2ccc(Cl)c(Cl)c2)n1` : 0 (91-100 (No damages))

Per the record, `COc1cc(OC)nc(Oc2ccccc2C=NOCC=Cc2ccc(F)cc2)n1` has Injury Rice of 1 (71-90 (Slight damages))

The reported numbers originate from patent US5053070A.
